test: Cmax in male Sprague-Dawley rat at 0.5 mg/kg, iv measured for 36 hrs by LC-MS/MS analysis; type: ADME, organism-based; parameters: route intravenous, dose 0.5 mg/kg, time 36 hrs; settings: in vivo
METRIC: Cmax (ng/mL)
Answers are plain numbers, in ng/mL.

Exercise: I'd like to know its Cmax. The compound in question is CS(=O)(=O)[O-].FC(F)(F)c1ccc([C+](c2c[nH]c3ccccc23)c2c[nH]c3ccccc23)cc1
Solution: 880

---

experiment: Cmax in female Sprague-Dawley rat at 0.5 mg/kg, iv measured for 36 hrs by LC-MS/MS analysis; type: ADME, organism-based; design: route intravenous, time 36 hrs, dose 0.5 mg/kg; conditions: in vivo
METRIC: Cmax

Exercise: I'd like to know its Cmax. The compound in question is CS(=O)(=O)[O-].FC(F)(F)c1ccc([C+](c2c[nH]c3ccccc23)c2c[nH]c3ccccc23)cc1
Solution: 1640 ng/mL

---

experiment: Oral bioavailability in male/female Sprague-Dawley rat at 5 mg/kg measured for 36 hrs by LC-MS/MS analysis; format: ADME, organism-based; conditions: both, in vivo
METRIC: bioavailability (%)
One number for each entry, in %.

Exercise: I'd like to know its bioavailability. The compound in question is CS(=O)(=O)[O-].Cn1cc([C+](c2ccc(C(F)(F)F)cc2)c2c[nH]c3ccccc23)c2ccccc21
Solution: 14.6

---

test system: NCM460; assay: Cytotoxicity against human NCM460 cells assessed as inhibition of cell growth measured after 24 hrs by MTT assay; assay type: cell-based; settings: ncm460
METRIC: IC50 (µM)
One number for each entry, in µM.

Exercise: I'd like to know its IC50. The compound in question is FC(F)(F)c1ccc([C+](c2c[nH]c3ccccc23)c2c[nH]c3ccccc23)cc1
Solution: 5.13

---

assay: AUC (0 to t) in male/female Sprague-Dawley rat at 5 mg/kg, po measured for 36 hrs by LC-MS/MS analysis; format: ADME, organism-based; parameters: dose 5 mg/kg, time 36 hrs; conditions: both, in vivo
METRIC: AUC(0-t) at 36 h (µg·h/mL)
One number for each entry, in µg·h/mL.

Exercise: I'd like to know its AUC(0-t) at 36 h. The molecule in question is CS(=O)(=O)[O-].Cn1cc([C+](c2ccc(C(F)(F)F)cc2)c2c[nH]c3ccccc23)c2ccccc21
Solution: 0.734

---

assay: Tmax in male/female Sprague-Dawley rat at 5 mg/kg, po measured for 36 hrs by LC-MS/MS analysis; type: ADME, organism-based; settings: both, in vivo
METRIC: Tmax (h)
Give bare numbers, in h.

Exercise: I'd like to know its Tmax. The compound in question is CS(=O)(=O)[O-].Cn1cc([C+](c2ccc(C(F)(F)F)cc2)c2c[nH]c3ccccc23)c2ccccc21
Solution: 3

---

assay: Volume of distribution at steady state in male Sprague-Dawley rat at 0.5 mg/kg, iv measured for 36 hrs by LC-MS/MS analysis; format: ADME, organism-based; settings: in vivo, read-out: Vdss
METRIC: Vd (L/kg)
Give bare numbers, in L/kg.

Exercise: I'd like to know its Vd. The compound in question is CS(=O)(=O)[O-].FC(F)(F)c1ccc([C+](c2c[nH]c3ccccc23)c2c[nH]c3ccccc23)cc1
Solution: 2.56
